All values here come from patent US11993599B2.

# System: BRG1 (Homo sapiens)
# Construct: either BRM primary antibody (Cell signaling Cat #11966) or BRG primary antibody (Abcam, ab 110641); endogenous in cells; host or cells: SW1573
# Sequence (P51532 whole entry): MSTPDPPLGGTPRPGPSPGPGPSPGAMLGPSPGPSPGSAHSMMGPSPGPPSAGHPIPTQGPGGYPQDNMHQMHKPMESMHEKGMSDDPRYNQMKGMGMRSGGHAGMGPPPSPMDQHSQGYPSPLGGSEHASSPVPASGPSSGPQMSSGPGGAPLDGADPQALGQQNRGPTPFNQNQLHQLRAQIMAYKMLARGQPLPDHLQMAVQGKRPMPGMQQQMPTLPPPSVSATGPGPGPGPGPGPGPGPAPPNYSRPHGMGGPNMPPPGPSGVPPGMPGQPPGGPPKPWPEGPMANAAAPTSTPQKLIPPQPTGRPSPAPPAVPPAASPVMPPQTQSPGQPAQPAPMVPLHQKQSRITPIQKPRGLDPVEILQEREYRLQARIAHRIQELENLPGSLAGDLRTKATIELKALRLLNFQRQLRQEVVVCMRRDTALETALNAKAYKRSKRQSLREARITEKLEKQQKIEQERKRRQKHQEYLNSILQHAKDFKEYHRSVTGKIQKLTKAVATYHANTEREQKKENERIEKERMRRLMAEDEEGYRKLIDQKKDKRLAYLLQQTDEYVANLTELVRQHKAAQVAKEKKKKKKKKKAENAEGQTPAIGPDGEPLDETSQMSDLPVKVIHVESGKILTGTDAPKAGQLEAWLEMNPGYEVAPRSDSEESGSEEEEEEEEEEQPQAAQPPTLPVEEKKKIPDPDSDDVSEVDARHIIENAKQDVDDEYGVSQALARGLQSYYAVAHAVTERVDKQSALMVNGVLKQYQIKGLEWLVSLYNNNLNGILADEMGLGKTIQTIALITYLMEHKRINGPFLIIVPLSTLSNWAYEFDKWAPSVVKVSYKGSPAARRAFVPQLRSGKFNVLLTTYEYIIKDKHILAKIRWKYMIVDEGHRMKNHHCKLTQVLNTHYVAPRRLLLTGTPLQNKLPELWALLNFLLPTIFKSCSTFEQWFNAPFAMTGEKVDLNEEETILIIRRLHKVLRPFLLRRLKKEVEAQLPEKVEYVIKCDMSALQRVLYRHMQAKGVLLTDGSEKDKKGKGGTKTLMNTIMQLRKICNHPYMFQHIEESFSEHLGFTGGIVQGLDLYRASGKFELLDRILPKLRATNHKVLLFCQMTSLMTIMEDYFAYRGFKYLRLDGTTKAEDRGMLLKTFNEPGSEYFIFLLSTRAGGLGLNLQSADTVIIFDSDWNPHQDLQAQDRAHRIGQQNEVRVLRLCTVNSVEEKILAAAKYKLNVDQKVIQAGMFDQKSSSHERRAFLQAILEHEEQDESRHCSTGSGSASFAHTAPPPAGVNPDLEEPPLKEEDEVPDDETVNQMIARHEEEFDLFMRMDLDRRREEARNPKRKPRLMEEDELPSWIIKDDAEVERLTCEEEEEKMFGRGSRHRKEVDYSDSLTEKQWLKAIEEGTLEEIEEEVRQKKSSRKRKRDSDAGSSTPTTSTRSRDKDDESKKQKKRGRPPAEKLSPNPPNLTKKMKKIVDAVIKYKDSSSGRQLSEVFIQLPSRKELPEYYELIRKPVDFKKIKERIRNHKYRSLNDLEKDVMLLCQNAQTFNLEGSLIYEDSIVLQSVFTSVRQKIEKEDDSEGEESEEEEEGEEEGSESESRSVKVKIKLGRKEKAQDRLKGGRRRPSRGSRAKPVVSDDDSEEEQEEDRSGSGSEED
# Method: Immunofluorescence assay for BRG1 degradation in SW1573 cells
# Type: cell-based
# Run conditions: SW1573, 20 h, 20 hours incubation, normalized to a known degrader control, read-out: BRG1 IF Degradation Sinf (%)
The following compounds are listed with their measured Dmax values.
Measure name: Dmax

COCC1(O)CCCN(CC#Cc2cc(N3C4CCC3CN(c3cc(-c5ccccc5O)nnc3N)C4)ccn2)CC1 (stereo not shown) [Compound 207]; 71 to 120%
NCC(=O)NCCCc1cc(N2C3CCC2CN(c2cc(-c4ccccc4O)nnc2N)C3)ccn1 [Compound 32]; 0 to 30%
Nc1nnc(-c2ccccc2O)cc1N1CC2CCC(C1)N2c1ccnc(C#CCN2CCOC(F)(F)C2)c1 [Compound 112]; 0 to 30%
CC1(CO)CCCN(CC#Cc2cc(N3C4CCC3CN(c3cc(-c5ccccc5O)nnc3N)C4)ccn2)CC1 (stereo not shown) [Compound 197]; 30 to 70%

* * *

# System: BRG1 (Homo sapiens)
# Construct: either BRM primary antibody (Cell signaling Cat #11966) or BRG primary antibody (Abcam, ab 110641); endogenous in cells; host or cells: SW1573
# Method: Immunofluorescence assay for BRG1 degradation in SW1573 cells
# Format: cell-based
# Run conditions: SW1573, 20 h, 20 hours incubation, normalized to a known degrader control, read-out: BRG1 IF Degradation Sinf (%)
The following compounds are listed with their measured Dmax values.
Measure name: Dmax

Nc1nnc(-c2ccccc2O)cc1N1CC2CCC(C1)N2c1ccnc(C#CCN2CCC3COCC3C2)c1 (stereo not shown) [Compound 88]; 0 to 30%
Nc1nnc(-c2ccccc2O)cc1N1CC2CCC(C1)N2c1ccnc(C#CCN2CC3(CC(O)C3)C2)c1 [Compound 185]; 30 to 70%
Nc1nnc(-c2ccccc2O)cc1N1CC2CCC(C1)N2c1ccnc(C#CCN2CCC(N3CCOCC3)C2)c1 (stereo not shown) [Compound 80]; 0 to 30%
Nc1nnc(-c2ccccc2O)cc1N1CC2CCC(C1)N2c1ccnc(C#CCN2CC(F)(F)C2)c1 [Compound 223]; 30 to 70%
Nc1nnc(-c2ccccc2O)cc1N1CC2CCC(C1)N2c1ccnc(C#CCN2CC3CC3C2)c1 (stereo not shown) [Compound 68]; 30 to 70%
Nc1nnc(-c2ccccc2O)cc1N1CC2CCC(C1)N2c1ccnc(C#CCN2Cc3cn[nH]c3C2)c1 [Compound 149]; 0 to 30%
CC1CCN(CC#Cc2cc(N3C4CCC3CN(c3cc(-c5ccccc5O)nnc3N)C4)ccn2)CCC1O (stereo not shown) [Compound 190]; 30 to 70%

* * *

The following compounds are listed with their measured DC50 values.
# System: BRM (Homo sapiens, UniProt P51531)
# Sequence (P51531 whole entry): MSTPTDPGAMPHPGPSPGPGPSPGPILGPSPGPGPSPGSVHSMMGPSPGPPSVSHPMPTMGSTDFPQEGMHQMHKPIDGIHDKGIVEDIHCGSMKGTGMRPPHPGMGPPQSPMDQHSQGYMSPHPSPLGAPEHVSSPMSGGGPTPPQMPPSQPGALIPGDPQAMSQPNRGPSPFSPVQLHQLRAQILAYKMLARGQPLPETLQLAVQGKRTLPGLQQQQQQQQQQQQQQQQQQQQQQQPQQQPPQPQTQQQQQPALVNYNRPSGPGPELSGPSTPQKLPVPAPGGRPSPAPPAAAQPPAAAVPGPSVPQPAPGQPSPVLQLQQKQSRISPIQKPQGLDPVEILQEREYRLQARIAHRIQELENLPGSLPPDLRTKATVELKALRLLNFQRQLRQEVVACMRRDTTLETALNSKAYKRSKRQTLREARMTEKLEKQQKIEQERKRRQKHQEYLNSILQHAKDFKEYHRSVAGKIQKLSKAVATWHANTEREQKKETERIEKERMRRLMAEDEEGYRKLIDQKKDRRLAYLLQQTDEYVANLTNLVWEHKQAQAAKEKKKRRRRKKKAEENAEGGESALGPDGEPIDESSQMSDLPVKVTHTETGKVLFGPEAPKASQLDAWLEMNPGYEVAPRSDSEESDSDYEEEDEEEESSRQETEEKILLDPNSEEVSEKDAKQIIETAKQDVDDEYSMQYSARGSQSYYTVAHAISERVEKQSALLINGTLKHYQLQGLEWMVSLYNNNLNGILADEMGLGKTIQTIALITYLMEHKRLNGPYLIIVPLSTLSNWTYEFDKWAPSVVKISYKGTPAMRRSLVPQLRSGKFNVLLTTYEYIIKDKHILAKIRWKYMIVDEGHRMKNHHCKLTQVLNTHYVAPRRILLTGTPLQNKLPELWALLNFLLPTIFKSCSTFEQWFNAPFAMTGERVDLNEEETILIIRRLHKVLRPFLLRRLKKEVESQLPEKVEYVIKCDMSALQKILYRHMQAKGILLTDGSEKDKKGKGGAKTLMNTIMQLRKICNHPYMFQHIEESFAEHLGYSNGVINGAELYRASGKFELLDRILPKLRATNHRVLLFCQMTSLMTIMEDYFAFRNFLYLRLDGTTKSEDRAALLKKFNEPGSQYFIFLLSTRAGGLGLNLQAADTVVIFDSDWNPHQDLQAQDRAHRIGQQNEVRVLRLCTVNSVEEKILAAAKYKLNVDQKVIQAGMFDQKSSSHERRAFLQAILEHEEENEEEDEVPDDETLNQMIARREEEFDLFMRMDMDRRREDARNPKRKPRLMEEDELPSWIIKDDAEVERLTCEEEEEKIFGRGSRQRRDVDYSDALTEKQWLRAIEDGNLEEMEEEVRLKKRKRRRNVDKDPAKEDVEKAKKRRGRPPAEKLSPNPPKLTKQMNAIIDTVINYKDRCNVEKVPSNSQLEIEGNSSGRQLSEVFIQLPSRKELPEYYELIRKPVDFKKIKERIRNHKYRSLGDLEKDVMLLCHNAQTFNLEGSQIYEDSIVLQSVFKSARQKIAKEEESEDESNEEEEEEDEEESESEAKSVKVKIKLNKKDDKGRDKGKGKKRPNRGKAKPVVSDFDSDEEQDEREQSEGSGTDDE
# Method: Immunofluorescence assay for BRM degradation in SW1573 cells
# Format: cell-based
# Set-up: treated overnight at 4° C. with either BRM primary antibody (Cell signaling Cat #11966) or BRG primary antibody; endogenous in cells; host or cells: SW1573
# Run conditions: 20 hours incubation, immunofluorescence mean nuclear signal, read-out: BRM IF Degradation IC50
Measure name: DC50

CC1CCN(CC#Cc2cc(N3C4CCC3CN(c3cc(-c5ccccc5O)nnc3N)C4)ccn2)CCC1O (stereo not drawn); < 10 nM
Nc1nnc(-c2ccccc2O)cc1N1CC2CCC(C1)N2c1ccnc(C#CCN2CCC3(CC2)CC3)c1; < 10 nM
Nc1nnc(-c2ccccc2O)cc1N1CC2CCC(C1)N2c1ccnc(C#CC2CCNCC2)c1; 10 to 100 nM
